Origin of values: paper PMC4963206

Tested on: AR230^R cells
Assay: Phenotypic screening / cytotoxicity in TKI-resistant CML cell line AR230^R
Type: cell-based
Conditions: read-out: IC50 AR230^R; Table 4
REPORTED_PROPERTY: IC50

Known IC50 results, listed for orientation:
[
  {
    "SMILES_STRING": "O=C(O)c1ccc(N(Cc2ccc(C3CCCC3)cc2)C(=O)CN(C2CC2)S(=O)(=O)c2c(F)c(F)c(Br)c(F)c2F)cc1",
    "REPORTED_PROPERTY": "IC50",
    "RESULT": "20.3 µM"
  },
  {
    "SMILES_STRING": "O=C(O)c1ccc(N(Cc2ccc(C3CCCC3)cc2)C(=O)CN(C2CC2)S(=O)(=O)c2c(F)c(F)c(Cl)c(F)c2F)cc1",
    "REPORTED_PROPERTY": "IC50",
    "RESULT": "30.7 µM"
  },
  {
    "SMILES_STRING": "Cc1c(F)c(F)c(S(=O)(=O)N(CC(=O)N(Cc2ccc(C3CCCC3)cc2)c2ccc(C(=O)O)cc2)C2CC2)c(F)c1F",
    "REPORTED_PROPERTY": "IC50",
    "RESULT": "18.6 µM"
  },
  {
    "SMILES_STRING": "O=C(O)c1ccc(N(Cc2ccc(C3CCCC3)cc2)C(=O)CN(C2CC2)S(=O)(=O)c2ccc(F)nc2)cc1",
    "REPORTED_PROPERTY": "IC50",
    "RESULT": "> 32 µM"
  },
  {
    "SMILES_STRING": "O=C(O)c1ccc(N(Cc2ccc(C3CCCC3)cc2)C(=O)CN(C2CC2)S(=O)(=O)c2c(F)c(F)cc(F)c2F)cc1",
    "REPORTED_PROPERTY": "IC50",
    "RESULT": "13.1 µM"
  },
  {
    "SMILES_STRING": "O=C(O)c1ccc(N(Cc2ccc(C3CCCC3)cc2)C(=O)CN(C2CC2)S(=O)(=O)c2ccc(F)cn2)cc1",
    "REPORTED_PROPERTY": "IC50",
    "RESULT": "> 32 µM"
  }
]

# lookup: CC(C)(C)c1ccc(CN(C(=O)CN(C2CC2)S(=O)(=O)c2ccc(F)cc2)c2ccc(C(=O)O)cc2)cc1 on AR230^R cells, IC50 = 10.6 µM

# lookup: O=C(O)c1ccc(N(Cc2ccc(C3CCCC3)cc2)C(=O)CN(C2CC2)S(=O)(=O)c2c(F)c(F)c(C(F)(F)F)c(F)c2F)cc1 on AR230^R cells, IC50 = 21.6 µM

====

Test: In vivo bioavailability / plasma pharmacokinetics, IP injection
Design: species or system CD-1 mice
Conditions: male, CD-1, mouse, plasma, ip, 20 mg/kg
REPORTED_PROPERTY: half-life
Write your answer as a measured quantity: the number, then the unit.

# half-life of CC(C)(C)c1ccc(CN(C(=O)CN(C2CC2)S(=O)(=O)c2c(F)c(F)cc(F)c2F)c2ccc(C(=O)O)cc2)cc1 = 1.42 h

====

System: AR230^R cells
Test: Phenotypic screening / cytotoxicity in TKI-resistant CML cell line AR230^R
Format: cell-based
Settings: Table 3, AR230 vs AR230^R
REPORTED_PROPERTY: Fold Difference
Note: the reply should be a number with no unit written.

# Fold Difference of O=C(O)c1ccc(N(Cc2ccc(F)cc2)C(=O)CN(C2CC2)S(=O)(=O)c2c(F)c(F)c(F)c(F)c2F)cc1 [PSL-3-122] = 2.03

# Fold Difference of O=C(O)c1ccc(N(Cc2ccc(Cl)cc2)C(=O)CN(C2CC2)S(=O)(=O)c2c(F)c(F)c(F)c(F)c2F)cc1 [DR-4-003] = 2.41

# Fold Difference of O=C(O)c1ccc(N(Cc2ccc(C3CC3)cc2)C(=O)CN(C2CC2)S(=O)(=O)c2c(F)c(F)c(F)c(F)c2F)cc1 [PSL-3-132] = 1.75

# Fold Difference of O=C(O)c1ccc(N(Cc2ccc(C3CCC3)cc2)C(=O)CN(C2CC2)S(=O)(=O)c2c(F)c(F)c(F)c(F)c2F)cc1 [DR-4-020] = 2.05
